Below, each entry is listed with its recorded % engagement EPHX4_C287.
Target: EPHX4_C287 (Homo sapiens, UniProt Q8IUS5)
Construct: endogenous in cells; host or cells: 22Rv1
Sequence (Q8IUS5 1-362): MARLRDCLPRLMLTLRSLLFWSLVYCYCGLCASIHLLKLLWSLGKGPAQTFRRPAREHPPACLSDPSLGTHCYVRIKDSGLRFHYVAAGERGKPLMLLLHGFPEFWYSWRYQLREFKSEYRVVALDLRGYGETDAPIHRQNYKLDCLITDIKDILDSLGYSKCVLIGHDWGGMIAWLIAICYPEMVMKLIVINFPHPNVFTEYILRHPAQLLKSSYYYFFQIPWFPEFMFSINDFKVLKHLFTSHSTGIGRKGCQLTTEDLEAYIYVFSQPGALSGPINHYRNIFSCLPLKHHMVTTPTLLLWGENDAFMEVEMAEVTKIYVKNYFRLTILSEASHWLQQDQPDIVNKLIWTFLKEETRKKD
Assay: IA-DTB cysteine engagement
Assay type: binding
Conditions: 22Rv1 cells, 20 μM probe, 1 h, relative to DMSO
Write the value in % as a bare number.

Before answering, review these 3 worked examples.
{"Molecule": "C=CC(=O)N1C[C@H](c2ccc(Br)cc2)[C@H]1C(=O)Nc1cccc2cccnc12 [MY-3B]", "Readout label": "% engagement EPHX4_C287", "Numeric value": 86.5}
{"Molecule": "C=CC(=O)N1C[C@H](c2ccc(Br)cc2)[C@H]1C(=O)Nc1cccc2cccnc12 [MY-3A]", "Readout label": "% engagement EPHX4_C287", "Numeric value": 28}
{"Molecule": "C=CC(=O)N1C[C@H](c2ccc(Br)cc2)[C@@H]1C(=O)Nc1cccc2cccnc12 [MY-1B]", "Readout label": "% engagement EPHX4_C287", "Numeric value": 44.5}

Please turn your attention to the following entry.
C=CC(=O)N1C[C@@H](c2ccc(Br)cc2)[C@H]1C(=O)Nc1cccc2cccnc12 [MY-1A] has a reported % engagement EPHX4_C287 of 23.5
